- Tested on: 253994-281-T-J1-PDC KRAS-mutant spheroids with HUVEC/MSC, viability
- Method summary: Anticancer human tumor 253994-281-T-J1-PDC patient-derived colorectal carcinoma cell line growth inhibition [KRAS2]
- Measurement conditions: curve of first compound; second compound 1 µM
Measured metric: IC50 (µM)
Write it as a number; the unit µM goes unstated.

CC(=O)OC12COC1CC(O)C1(C)C(=O)C(O)C3=C(C)C(OC(=O)C(O)C(NC(=O)OC(C)(C)C)c4ccccc4)CC(O)(C(OC(=O)c4ccccc4)C21)C3(C)C (stereo not drawn) + C=CC(=O)N1CCN(c2nc(=O)n(-c3c(C)ccnc3C(C)C)c3nc(-c4c(O)cccc4F)c(F)cc23)C(C)C1 ... 0.0192
COC(=O)c1ccc2c(C(=Nc3ccc(N(C)C(=O)CN4CCN(C)CC4)cc3)c3ccccc3)c(O)[nH]c2c1 + C=CC(=O)N1CCN(c2nc(=O)n(-c3c(C)ccnc3C(C)C)c3nc(-c4c(O)cccc4F)c(F)cc23)C(C)C1 ... 5.47

Request: Tell me IC50 reported for CCN1CCN(Cc2ccc(Nc3ncc(F)c(-c4cc(F)c5nc(C)n(C(C)C)c5c4)n3)nc2)CC1 + CNCc1ccccc1-c1csc(C(C)Nc2nc(C)nc3cc(OC)c(OC)cc23)c1
Response: 0.42

Request: Give the reported value of IC50 for this record: COc1cc2nccc(Oc3ccc(NC(=O)C4(C(=O)Nc5ccc(F)cc5)CC4)cc3)c2cc1OC + CNCc1ccccc1-c1csc(C(C)Nc2nc(C)nc3cc(OC)c(OC)cc23)c1
Response: 3.47

Request: Provide only the value of recorded IC50 for Cn1nccc1Nc1nccc(-c2cc3c(s2)C(C)(C)N(CCN2CCOCC2)C3=O)n1 + C=CC(=O)N1CCN(c2nc(=O)n(-c3c(C)ccnc3C(C)C)c3nc(-c4c(O)cccc4F)c(F)cc23)C(C)C1
Response: 2.77

Request: Quickly give me recorded IC50 for CC(=O)Nc1cccc(-n2c(=O)n(C3CC3)c(=O)c3c(Nc4ccc(I)cc4F)n(C)c(=O)c(C)c32)c1 + C=CC(=O)N1CCN(c2nc(=O)n(-c3c(C)ccnc3C(C)C)c3nc(-c4c(O)cccc4F)c(F)cc23)C(C)C1
Response: 0.0015

----------
- Tested on: 253994-281-T-J1-PDC KRAS-mutant spheroids with HUVEC/MSC, viability
- Method summary: Anticancer human tumor 253994-281-T-J1-PDC cell line growth inhibition [KRAS2];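 note: spheroids exposed to agents for seven days before readout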;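 for viability, T/C: percent of DMSO vehicle control viability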
- Measurement conditions: second compound 0.1 µM; first compound 0.1 µM; stronger effect = lower value
Entries and their viability, T/C
// return numeric value only (unit: %, not printed)

CN(C)C/C=C/C(=O)Nc1cc2c(Nc3ccc(F)c(Cl)c3)ncnc2cc1O[C@H]1CCOC1 + CC1OCC2(CCN(c3cnc(Sc4ccnc(N)c4Cl)c(N)n3)CC2)C1N ... 58.5
CC(C)n1nc(-c2ccc3oc(N)nc3c2)c2c(N)ncnc21 + CNCc1ccccc1-c1csc(C(C)Nc2nc(C)nc3cc(OC)c(OC)cc23)c1 ... 50.8
CC1COCCN1c1cc(-c2ccnn2C)c2ccnc(-c3ccn[nH]3)c2n1 (stereo unspecified) + CC1OCC2(CCN(c3cnc(Sc4ccnc(N)c4Cl)c(N)n3)CC2)C1N ... 62.9
COc1cc2nccc(Oc3ccc(NC(=O)C4(C(=O)Nc5ccc(F)cc5)CC4)cc3)c2cc1OC + CNCc1ccccc1-c1csc(C(C)Nc2nc(C)nc3cc(OC)c(OC)cc23)c1 ... 99.1
COc1cc2nccc(Oc3ccc(NC(=O)C4(C(=O)Nc5ccc(F)cc5)CC4)cc3)c2cc1OC + CC1OCC2(CCN(c3cnc(Sc4ccnc(N)c4Cl)c(N)n3)CC2)C1N ... 106

// below: viability, T/C requested for another molecule
Request: For the molecule Cn1nccc1Nc1nccc(-c2cc3c(s2)C(C)(C)N(CCN2CCOCC2)C3=O)n1 + C=CC(=O)N1CCN(c2nc(OCC3CCCN3C)nc3c2CCN(c2cccc4cccc(C)c24)C3)CC1CC#N , give its reported viability, T/C.
Response: 96.3
